target: T1, DegS Q187A (E. coli, UniProt P0AEE3 27-355, Q187A)
T1 sequence (looked up): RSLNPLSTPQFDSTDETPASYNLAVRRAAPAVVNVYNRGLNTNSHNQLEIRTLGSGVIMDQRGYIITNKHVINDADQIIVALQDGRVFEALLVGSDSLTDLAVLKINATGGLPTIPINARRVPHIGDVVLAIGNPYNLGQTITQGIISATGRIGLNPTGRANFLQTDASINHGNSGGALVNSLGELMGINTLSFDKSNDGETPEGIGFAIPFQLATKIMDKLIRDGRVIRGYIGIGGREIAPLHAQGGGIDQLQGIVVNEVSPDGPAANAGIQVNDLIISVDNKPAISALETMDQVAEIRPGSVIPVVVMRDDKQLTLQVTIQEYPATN
procedureText: fluorescence polarisation
Where no end group is shown, it is not given here. fluorescein = fluorescein, a fluorescent label on the peptide N-terminus
outcomeMeasure: Kd (µM)
Numeric only. Scale: µM

The binder listed as fluorescein-DNRDGNVYYF [fluorescent OMP peptide fluorescein-DNRDGNVYYF] has a reported Kd of 2.3
